Parameter IC50: see the listing below.
Test system: HCC1954;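 further: growth inhibition of human HCC1954 cells, read out with a cell viability assay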
Assay: cells
Type: functional, cell-based, Homo sapiens
Details: Homo sapiens, HCC1954
Description: SANGER: Inhibition of human HCC1954 cell growth in a cell viability assay.
quantity_kind: IC50

1) Cc1cc([C@@H](C)Nc2ccccc2C(=O)O)c2nc(N3CCOCC3)cc(=O)n2c1 ... 5.06 µM
2) O=C1N=C(NCc2cccs2)S/C1=C\c1ccc2ncccc2c1 ... > 5 µM
3) Cn1cc(C2=C(c3ccc(Cl)cc3Cl)C(=O)NC2=O)c2ccccc21 ... > 10 µM
4) C=CCNC1=C2C[C@@H](C)C[C@H](OC)[C@H](O)[C@@H](C)/C=C(\C)[C@H](OC(N)=O)[C@@H](OC)/C=C\C=C(/C)C(=O)NC(=CC1=O)C2=O ... > 1 µM
5) O=C(NOCC1CC1)c1ccc(F)c(F)c1Nc1ccc(I)cc1Cl ... > 10 µM
6) C[C@]1(O)C[C@@H](c2nc(-c3ccc4ccc(-c5ccccc5)nc4c3)c3c(N)nccn32)C1 ... > 2.56 µM
7) CCC1=C[C@@H]2CN(C1)Cc1c([nH]c3ccccc13)[C@@](C(=O)OC)(c1cc3c(cc1OC)N(C)[C@H]1[C@@](O)(C(=O)OC)[C@H](OC(C)=O)[C@]4(CC)C=CCN5CC[C@]31[C@@H]54)C2 ... 0.0101 µM

---

Test system: Ca9-22
Experiment: cells
Type: functional, cell-based, Homo sapiens
Settings: Homo sapiens, Ca9-22
Description: SANGER: Inhibition of human Ca9-22 cell growth in a cell viability assay.
pIC50: −log10 of the molar value.
Reported pIC50 values follow for various compounds
quantity_kind: pIC50

1. O=C(NOCC1CC1)c1ccc(F)c(F)c1Nc1ccc(I)cc1Cl [CI-1040] ... 5.53
2. Cn1cncc1[C@@](N)(c1ccc(Cl)cc1)c1ccc2c(c1)c(-c1cccc(Cl)c1)cc(=O)n2C [TIPIFARNIB] ... 5.53
3. CCC1=C[C@@H]2CN(C1)Cc1c([nH]c3ccccc13)[C@@](C(=O)OC)(c1cc3c(cc1OC)N(C)[C@H]1[C@@](O)(C(=O)OC)[C@H](OC(C)=O)[C@]4(CC)C=CCN5CC[C@]31[C@@H]54)C2 [VINORELBINE] ... 7.99
4. COc1cc(F)c(F)c(Nc2ccc(I)cc2F)c1NS(=O)(=O)C1(CC(O)CO)CC1 (stereo not drawn) ... 6.01

---

pIC50 values by entry
Tested on: NCI-H747;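 further: growth inhibition of human NCI-H747 cells, read out by a cell viability assay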
Assay: cells
Type: functional, cell-based
Conditions: Homo sapiens
Description: SANGER: Inhibition of human NCI-H747 cell growth in a cell viability assay.
pIC50: −log10 of the molar value.
quantity_kind: pIC50

1) CCC1=C[C@@H]2CN(C1)Cc1c([nH]c3ccccc13)[C@@](C(=O)OC)(c1cc3c(cc1OC)N(C)[C@H]1[C@@](O)(C(=O)OC)[C@H](OC(C)=O)[C@]4(CC)C=CCN5CC[C@]31[C@@H]54)C2 ... < 7.19
2) CCc1nc(N)nc(N)c1-c1ccc(Cl)cc1 ... < 4.70
3) CNC(=O)c1cc(Oc2ccc(NC(=O)Nc3ccc(Cl)c(C(F)(F)F)c3)cc2)ccn1 ... < 5.40
4) O=C1N=C(NCc2cccs2)S/C1=C\c1ccc2ncccc2c1 ... < 5.30
5) C=C1C(=O)O[C@@H]2C3O[C@]3(C)CC/C=C(\C)CC[C@@H]12 (stereo not given in full) ... < 5.30

---

Test system: Kasumi 1
Assay: cells
Format: functional, cell-based
Conditions: Homo sapiens
Description: SANGER: Inhibition of human KASUMI-1 cell growth in a cell viability assay.
pIC50: −log10 of the molar value.
quantity_kind: pIC50

1. Cc1cc(Nc2cc(N3CCN(C)CC3)nc(Sc3ccc(NC(=O)C4CC4)cc3)n2)n[nH]1 [TOZASERTIB] ... < 5.70
2. Cc1cc([C@@H](C)Nc2ccccc2C(=O)O)c2nc(N3CCOCC3)cc(=O)n2c1 [AZD-6482] ... 5.69
3. CCC(=O)N1CCN(c2ccc(-n3c(=O)ccc4cnc5ccc(-c6cnc7ccccc7c6)cc5c43)cc2C(F)(F)F)CC1 [TORIN1] ... < 5.92
4. Nc1ccn([C@@H]2O[C@H](CO)[C@@H](O)[C@@H]2O)c(=O)n1 [CYTARABINE] ... < 5.70
5. CNC(=O)c1cc(Oc2ccc(NC(=O)Nc3ccc(Cl)c(C(F)(F)F)c3)cc2)ccn1 [SORAFENIB] ... < 5.40
6. O=C(/C=C/c1ccccc1)NC(NC(=S)Nc1cccc2cccnc12)C(Cl)(Cl)Cl (stereo unspecified) [SALUBRINAL] ... < 4.80
